Sourced from ChEMBL document CHEMBL3217505

Attribute: pIC50
Target: Histidinol dehydrogenase (Brucella suis biovar 1 (strain 1330))
Sequence (Q8G2R2 whole entry): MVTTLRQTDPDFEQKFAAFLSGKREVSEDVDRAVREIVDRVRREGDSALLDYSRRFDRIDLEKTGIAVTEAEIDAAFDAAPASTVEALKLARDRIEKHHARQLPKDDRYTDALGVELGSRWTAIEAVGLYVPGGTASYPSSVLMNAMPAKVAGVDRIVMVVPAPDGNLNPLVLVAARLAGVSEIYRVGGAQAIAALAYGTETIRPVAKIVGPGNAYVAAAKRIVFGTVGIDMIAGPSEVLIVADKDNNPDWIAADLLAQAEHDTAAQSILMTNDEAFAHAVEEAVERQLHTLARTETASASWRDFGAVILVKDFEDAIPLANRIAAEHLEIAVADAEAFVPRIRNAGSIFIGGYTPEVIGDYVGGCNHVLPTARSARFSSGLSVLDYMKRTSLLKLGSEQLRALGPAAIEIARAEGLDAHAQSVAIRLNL
Test: Inhibition of Brucella suis 1330 His6-tagged HDH expressed in Escherichia coli BL21 (DE3) using L-histidinol as substrate assessed as NADH formation preincubated for 5 mins followed by substrate addition
In simple prose, pIC50 is minus the logarithm base ten of a concentration in moles per litre.

Sample answers from the record:
// query Which value of pIC50 has been reported for N[C@@H](Cc1c[nH]cn1)C(=O)CSc1ccccc1 in the records?
// result 5.15

// query Which value of pIC50 has been reported for N[C@@H](Cc1c[nH]cn1)C(=O)CO in the records?
// result 7.61

// query Which value of pIC50 has been reported for N[C@@H](Cc1c[nH]cn1)C(=O)CSc1ccc2ccccc2c1 in the records?
// result 5.48

// query Which value of pIC50 has been reported for N[C@@H](Cc1c[nH]cn1)C(=O)CS in the records?
// result 5.68

// query Which value of pIC50 has been reported for Cc1ccc(SCC(=O)[C@@H](N)Cc2c[nH]cn2)cc1 in the records?
// result 4.40

// query Which value of pIC50 has been reported for N[C@@H](Cc1c[nH]cn1)C(=O)CSc1ccc(Br)cc1 in the records?
// result 5.55

// query Which value of pIC50 has been reported for N[C@@H](Cc1c[nH]cn1)C(=O)CSc1ccc(F)cc1 in the records?
// result 5.51

// query Which value of pIC50 has been reported for N[C@@H](Cc1c[nH]cn1)C(=O)COc1ccccc1 in the records?
// result 5.44

Further cases:
// query Which value of pIC50 has been reported for N[C@@H](Cc1c[nH]cn1)C(=O)COc1c(F)c(F)c(F)c(F)c1F in the records?
// result 5.56

// query Which value of pIC50 has been reported for N[C@@H](Cc1c[nH]cn1)C(=O)COc1ccc2ccccc2c1 in the records?
// result 6.97
